- Assay Comment: Liver microsome stability, human
- Format: in vitro ADME
- Assay Setup: 1 uM compound, human liver microsomes 0.5 mg/ml; read-out: Liver Microsomes (t1/2, minutes) Human
Endpoint Label: half-life at 1 uM (min)
Note: unit min is implicit; provide only the numeric part.

Fill blank: measured half-life at 1 uM of the compound O=C(CCCCCc1ccccc1)NC1CCOCC1 [23 (Comp.)] is ____.
23.7
